Property: TGI; scope: individual molecules
# Tested on: HCT-15 colon
# EXPERIMENTAL_PROTOCOL: NCI tumour cell line growth inhibition, 48 h

[
  {
    "MOLECULE": "C[Si](C)(C)/C=C\\CCCN1C(=O)CCC1=O",
    "MEASUREMENT_UNITS": "µM",
    "LT_GT_EQ": ">",
    "TGI": 100
  },
  {
    "MOLECULE": "COc1cccc2c1C(=O)c1c(O)c3c(c(O)c1C2=O)C[C@@](O)(/C(C)=N/NC(=O)c1ccccc1)C[C@@H]3OC1CC(N)C(O)C(C)O1 (some centres undefined)",
    "MEASUREMENT_UNITS": "µM",
    "LT_GT_EQ": "=",
    "TGI": 19.9
  },
  {
    "MOLECULE": "CCc1n[nH]c(=O)n1NC(=O)c1ccccc1C(=O)O",
    "MEASUREMENT_UNITS": "µM",
    "LT_GT_EQ": ">",
    "TGI": 100
  },
  {
    "MOLECULE": "CC(=O)NC1C(OCc2ccccc2)OC(COC(=O)CCCCCNc2ccc([N+](=O)[O-])c3[nH]c4ccc(O)cc4c(=O)c23)C(O)C1OC(C)C(=O)N[C@@H](C)C(=O)N[C@H](CCC(=O)OCc1ccccc1)C(N)=O (some centres undefined)",
    "MEASUREMENT_UNITS": "µM",
    "LT_GT_EQ": "=",
    "TGI": 3.67
  },
  {
    "MOLECULE": "O=S1c2ccccc2N=C(c2ccc(Cl)cc2)CC1c1cccs1 (centres undefined)",
    "MEASUREMENT_UNITS": "µM",
    "LT_GT_EQ": "=",
    "TGI": 29.1
  },
  {
    "MOLECULE": "CC1(C)N=C(/C=N/O)C(C)(C)N1O",
    "MEASUREMENT_UNITS": "µM",
    "LT_GT_EQ": ">",
    "TGI": 100
  },
  {
    "MOLECULE": "CC(C)c1cccc(C(C)C)c1N=C(N)C#N",
    "MEASUREMENT_UNITS": "µM",
    "LT_GT_EQ": ">",
    "TGI": 58.2
  },
  {
    "MOLECULE": "COc1ccc(-c2csc(NC(=O)N3CCN(c4cc5c(cc4F)c(=O)c(C(=O)O)cn5C4CC4)CC3)n2)cc1",
    "MEASUREMENT_UNITS": "µM",
    "LT_GT_EQ": ">",
    "TGI": 100
  },
  {
    "MOLECULE": "COc1ccc(Nc2nc(N)c(C(=O)c3ccccc3)s2)cc1",
    "MEASUREMENT_UNITS": "µM",
    "LT_GT_EQ": "=",
    "TGI": 26.2
  }
]
